experiment: clinical; details: human, in vivo
measured-attribute: half-life

Qu. I have this compound here, `Cc1c(N=C2NCCN2)cc(C#N)c2[nH]cnc12` , and I need its recorded half-life.
Ans. 26 to 40 h

Values were extracted from patent US20150133516A1.
